# SYSTEM_TESTED: E3 ubiquitin-protein ligase XIAP (Homo sapiens) (UniProt P98170)
# Sequence (P98170 whole entry, looked up): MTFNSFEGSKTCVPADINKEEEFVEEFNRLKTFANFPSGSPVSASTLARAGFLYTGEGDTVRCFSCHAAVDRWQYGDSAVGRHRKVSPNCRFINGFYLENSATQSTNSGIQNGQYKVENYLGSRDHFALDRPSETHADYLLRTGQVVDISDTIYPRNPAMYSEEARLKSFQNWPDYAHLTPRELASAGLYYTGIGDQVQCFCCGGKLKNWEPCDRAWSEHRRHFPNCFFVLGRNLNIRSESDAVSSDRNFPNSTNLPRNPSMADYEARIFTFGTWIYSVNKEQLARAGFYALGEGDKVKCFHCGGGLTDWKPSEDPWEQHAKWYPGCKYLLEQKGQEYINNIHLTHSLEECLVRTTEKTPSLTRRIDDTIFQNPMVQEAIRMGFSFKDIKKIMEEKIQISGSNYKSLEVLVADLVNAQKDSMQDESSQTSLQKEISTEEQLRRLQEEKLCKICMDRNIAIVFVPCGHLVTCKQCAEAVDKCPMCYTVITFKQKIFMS
# METHOD: XIAP binders, primary screen, biophysical, small-molecule microarray, fluorescence 635 nm (AID 1181);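 note: score merges 667 nm emission and signal to noise over triplicate slides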
# CONDITION: small-molecule microarray binding, higher = more signal
Listed below: composite z-score values for each entry.
Lab note: write the figure by itself, no unit.

COMPOUND: CCCCN1CC=CC23O[C@@H]4C=CCOC(=O)[C@@H]4[C@H]2C(=O)N(CCCCCO)[C@@H]3C1=O (stereo partly drawn)
composite z-score: 0.327

COMPOUND: CC(=O)NCCCC[C@@H]1NC(=O)[C@@H]2C[C@H](C(=O)NCCCCCCNC(=O)CS)[C@H](c3cccc(OCCO)c3)N2C1=O
composite z-score: -0.0791

COMPOUND: CN(C)CCCNC(=O)[C@@]1(C)c2ccccc2C(=O)N(Cc2cc(F)cc(C(F)(F)F)c2)[C@H]1c1ccc(CO)cc1
composite z-score: -0.0079

COMPOUND: CC(C)C(=C=CC[C@@H](O)c1ccccc1OCCO)CCO
composite z-score: -0.318

COMPOUND: COc1ccc([C@H]2C[C@H]3C(Br)=C[C@@H]2C(=O)[C@]32CO2)cc1
composite z-score: -0.0292

COMPOUND: COc1ccc(C(O)C2C=CC3C(=O)NC(=O)C3N2Nc2ccccn2)cc1 (stereo not drawn)
composite z-score: -0.893

Documented composite z-score of CN1C(=O)C2C=CC(C(O)C3CCCCC3)N(Nc3ccc([N+](=O)[O-])cc3[N+](=O)[O-])C2C1=O (stereo not drawn) : 0.618

Documented composite z-score of CC(=O)n1cc(C(O)C2C=CC3C(=O)N(C)C(=O)C3N2Nc2ccccc2)c2ccccc21 (stereo not drawn) : 0.229
